procedure text: ATP-based cell viability assay (CellTiter-Glo)
measurement context: African green monkey (Cercopithecus aethiops), Vero cells, four days, read-out: CC50 (cellular cytotoxicity 50)
reported property: CC50 at 4 days (µM)
Quick reminder: number only, in µM, skip the unit.

Consider "O=C(NC(=S)Nc1ccc(N2CCN(C(=O)c3cccs3)CC2)cc1)c1sc2ccccc2c1Cl" . Its measured CC50 at 4 days is 19.4

Reference for the values: patent US11135219B2
